Sourced from patent US20260242735A1

molecular target: human CD33 L78A (human, UniProt P20138 18-364); test: alanine scan, flow cytometry;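 note: HEK293-T cells transiently expressing single-residue alanine mutants of CD33 (alanine swapped to serine), antibody binding read by fluorescence in duplicate, background-subtracted, expressed relative to wild-type CD33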
Sequence (P20138 18-364 L78A limits assumed): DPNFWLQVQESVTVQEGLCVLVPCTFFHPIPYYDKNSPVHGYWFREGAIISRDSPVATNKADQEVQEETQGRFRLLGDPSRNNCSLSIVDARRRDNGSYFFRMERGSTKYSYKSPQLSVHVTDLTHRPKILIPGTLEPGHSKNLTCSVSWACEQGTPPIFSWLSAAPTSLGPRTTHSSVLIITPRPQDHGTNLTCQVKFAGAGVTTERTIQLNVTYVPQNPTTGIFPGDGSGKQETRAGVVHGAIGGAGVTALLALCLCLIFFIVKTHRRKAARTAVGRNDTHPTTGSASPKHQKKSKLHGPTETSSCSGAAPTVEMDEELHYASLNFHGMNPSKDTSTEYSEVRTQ
quantity measured: Mean % WT Binding (% WT)
Note: unit % WT is implicit; provide only the numeric part.

State the recorded Mean % WT Binding for this entry: Refmab #1 (antibody, V domains shown, Full-length format is human IgG1 (Absolute Antibody Ab00283-10.0); The alanine scan used IgG or Fab; also called hP67.6) VH: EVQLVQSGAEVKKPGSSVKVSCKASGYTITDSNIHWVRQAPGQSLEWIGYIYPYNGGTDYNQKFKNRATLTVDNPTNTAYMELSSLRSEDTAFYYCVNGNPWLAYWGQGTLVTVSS VL: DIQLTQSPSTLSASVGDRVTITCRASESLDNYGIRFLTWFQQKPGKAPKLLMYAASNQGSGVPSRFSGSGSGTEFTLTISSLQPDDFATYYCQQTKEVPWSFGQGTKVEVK
87.4

Do the same for Refmab #3 (antibody, V domains shown, Full-length format is human IgG1 Fc silent (PG-LALA); The alanine scan used IgG or Fab) VH: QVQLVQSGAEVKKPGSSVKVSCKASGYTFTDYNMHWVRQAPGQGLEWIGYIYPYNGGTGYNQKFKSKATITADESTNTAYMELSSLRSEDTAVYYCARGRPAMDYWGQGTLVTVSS VL: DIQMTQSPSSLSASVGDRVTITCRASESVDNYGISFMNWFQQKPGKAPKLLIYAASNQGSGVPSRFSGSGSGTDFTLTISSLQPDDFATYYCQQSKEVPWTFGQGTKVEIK please
113

Do the same for Refmab #4 (antibody, V domains shown, Full-length format is human IgG1 Fc silent (PG-LALA); The alanine scan used IgG or Fab) VH: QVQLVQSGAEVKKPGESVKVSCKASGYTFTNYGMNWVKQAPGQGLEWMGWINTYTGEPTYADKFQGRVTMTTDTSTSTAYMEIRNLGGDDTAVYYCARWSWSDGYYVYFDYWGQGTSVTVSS VL: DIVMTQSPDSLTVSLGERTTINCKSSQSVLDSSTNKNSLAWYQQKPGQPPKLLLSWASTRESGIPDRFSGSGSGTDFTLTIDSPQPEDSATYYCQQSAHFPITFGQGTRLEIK please
111

Do the same for Refmab #2 (antibody, V domains shown, Full-length format is human IgG1 Fc silent (PG-LALA); The alanine scan used IgG or Fab) VH: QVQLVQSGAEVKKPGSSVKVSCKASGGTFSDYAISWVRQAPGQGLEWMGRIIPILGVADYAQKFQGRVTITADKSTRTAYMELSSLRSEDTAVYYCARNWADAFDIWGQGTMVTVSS VL: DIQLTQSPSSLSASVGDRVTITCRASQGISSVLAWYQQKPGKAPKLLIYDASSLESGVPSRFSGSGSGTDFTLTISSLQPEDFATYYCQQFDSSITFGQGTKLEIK please
108
